Data provenance is paper PMC6332596.

# experimental.protocol: Pharmacokinetics of plasma chiauranib after single and multiple oral doses in patients (LC-MS/MS)
# Format: in vivo, human
# experimental.conditions: human, plasma, oral, 20 mg, Day1, single dose 20 mg (n = 6); read-out: AUC0–144 h
property: AUC(0-t) (ng·h/mL)
Write the answer as a number in ng·h/mL, unit excluded.

Entry under review: COc1ccc2c(Oc3ccc4c(C(=O)Nc5ccccc5N)cccc4c3)ccnc2c1 . Reported AUC(0-t)?
6820

====

# experimental.protocol: Pharmacokinetics of plasma chiauranib after single and multiple oral doses in patients (LC-MS/MS)
# Assay type: in vivo, human
# experimental.conditions: human, plasma, oral, 50 mg, Day1, single dose 50 mg (n = 3); read-out: AUC0–144 h
property: AUC(0-t)

Entry under review: COc1ccc2c(Oc3ccc4c(C(=O)Nc5ccccc5N)cccc4c3)ccnc2c1 . Reported AUC(0-t)?
16400 ng·h/mL

====

# experimental.protocol: Pharmacokinetics of plasma chiauranib after single and multiple oral doses in patients (LC-MS/MS)
# Type: in vivo, human
# experimental.conditions: human, plasma, oral, 35 mg, Day1, single dose 35 mg (n = 3)
property: Tmax (h)
Write the answer as a number in h, unit excluded.

Entry under review: COc1ccc2c(Oc3ccc4c(C(=O)Nc5ccccc5N)cccc4c3)ccnc2c1 . Reported Tmax?
1

====

# experimental.protocol: Pharmacokinetics of plasma chiauranib after single and multiple oral doses in patients (LC-MS/MS)
# Format: in vivo, human
# experimental.conditions: human, plasma, oral, 35 mg, Day28, multiple dose 35 mg once daily (n = 3)
property: Tmax (h)
Write the answer as a number in h, unit excluded.

Entry under review: COc1ccc2c(Oc3ccc4c(C(=O)Nc5ccccc5N)cccc4c3)ccnc2c1 . Reported Tmax?
4
